Experiment Description: chemical genetic growth profiling, strain panel (AID 1159580);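 further: tested at 20 µM; growth read once vehicle control cultures reached saturation at 30 °C; 1 = growth at the plate median or of vehicle wells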
Details: S. cerevisiae deletion strains, growth OD, locus YGL227W, strain vid30, stronger effect = lower value
In all, about 5,500 compounds went through this assay and about 2,000 (36%) were called active. Roughly 18% stayed inconclusive and do not appear here. This is one part of the list.
Reported normalized growth by item:

| Compound | normalized growth |
| --- | --- |
| CCCCOc1ccc(C(=O)CCN2CCCCC2)cc1 | 0.997 |
| CC(=O)O[C@H]1C(=O)[C@@]2(C)C([C@H](OC(=O)c3ccccc3)[C@]3(O)C[C@H](O)C(C)=C1C3(C)C)[C@]1(OC(C)=O)CO[C@@H]1C[C@@H]2O (stereo not given in full) | 0.992 |
| CCCCOc1ccc(OCCCN2CCOCC2)cc1 | 0.966 |
| OC(CCN1CCCCC1)(c1ccccc1)c1ccccc1 | 0.989 |
| N#Cc1c(Cl)c(Cl)c(Cl)c(C#N)c1Cl | 0.0779 |
| CCCCCC(=O)O[C@]1(C(C)=O)CCC2C3CCC4=CC(=O)CC[C@]4(C)C3CC[C@@]21C (stereo not given in full) | 1 |
| CC(=O)O[C@]1(C(C)=O)CCC2C3C=C(C)C4=CC(=O)CCC4(C)C3CCC21C (stereo not given in full) | 0.968 |
| CC(C)(CO)C(O)C(=O)NCCCO (stereo not given) | 1.02 |
| NC(N)=NOCC[C@H](N)C(=O)O | 1.02 |
| C[N+](C)(C)CCOP(=O)([O-])OP(=O)(O)OC[C@H]1OC(n2ccc(N)nc2=O)[C@H](O)[C@@H]1O (stereo not given in full) | 0.973 |

* * *

Experiment Description: chemical genetic growth profiling, strain panel (AID 1159580);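 further: tested at 20 µM; growth read once vehicle control cultures reached saturation at 30 °C; 1 = growth at the plate median or of vehicle wells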
Details: S. cerevisiae deletion strains, growth OD, locus YLR330W, strain CHS5
The whole screen tested about 5,500 compounds, of which about 2,000 (36%) were called active. Another 18% or so got no clear call; they are omitted. Rule as the data show it: active = normalized growth mostly below about 0.91 (no sharp cut-off); inconclusive = no clear call, values can overlap the other calls; inactive = mostly above about 0.92. The list shows a part of the results.
Outcomes: 1 (active), -1 (inactive)

| Compound | Group |
| --- | --- |
| COc1ccc2c(c1)OC[C@@H](Cc1ccc(OC)c(OC)c1)[C@H]2O | -1 |
| CC(C)=CCc1c(O)cc2oc(C)cc(=O)c2c1O | -1 |
| COc1ccc(CC2c3cc(OC)c(OC)cc3CCN2C)cc1OC (stereo not drawn) | -1 |
| COc1ccc(-c2c(O)c3cc4c(c(CC=C(C)C)c3oc2=O)OC(C)(C)CC4)cc1 | -1 |
| OCc1ccccc1O[C@@H]1O[C@H](CO)[C@@H](O)[C@H](O)[C@H]1O | -1 |
| C=CC1=C(C(=O)O)N2C(=O)[C@@H](NC(=O)/C(=N/O)c3csc(N)n3)[C@H]2SC1 | -1 |
| COc1ccc(-c2coc3c(OC)c(OC)cc(O)c3c2=O)cc1 | -1 |
| O=C(O)C1CC([C@@H]2CCCCN2)CN2CCCCC12 (stereo partly drawn) | -1 |
| N=c1nc(N2CCCCC2)cc(N)n1O | -1 |
| CCC(C(=O)O)c1ccccc1 (stereo not drawn) | -1 |
| O=C(/C=C/C=C/c1ccc2c(c1)OCO2)N1CCCCC1 | -1 |
| COc1ccc(-c2coc3c(OC)c(OC)ccc3c2=O)cc1 | -1 |
| Cn1cc[nH]c1=S | -1 |
| CCCCOc1ccc(OCCCN2CCOCC2)cc1 | -1 |
| COC(=O)C1[C@H]2C[C@H]3c4[nH]c5ccccc5c4CCN3C[C@@H]2CC[C@@H]1O (stereo partly drawn) | -1 |
| OCCN(CCO)c1nc(N2CCCCC2)c2nc(N(CCO)CCO)nc(N3CCCCC3)c2n1 | -1 |
| CC1(O)/C=C/C=C(\CO)C2CC(C)(C)C2(O)CC1 (stereo not drawn) | -1 |
| CCc1cccc(C)c1N(C(=O)CCl)C(C)COC (stereo not drawn) | -1 |
| C[CH2][Hg][S]c1ccccc1C(=O)O | 1 |
| OC(CCN1CCCCC1)(c1ccccc1)c1ccccc1 | -1 |
| COC(=O)COc1cc(Cl)c(Cl)cc1Cl | -1 |
| O=C(O)COc1cc(Cl)c(Cl)cc1Cl | -1 |
| Cc1ccc(C(=O)C(C)CN2CCCCC2)cc1 (stereo not drawn) | -1 |
| CCC(C(N)=O)c1ccccc1 (stereo not drawn) | -1 |
| C=CC(C)(C)c1c2c(c(O)c3c(=O)c4ccc(O)c(O)c4oc13)C=CC(C)(C)O2 | 1 |
| CC1(C)S[C@@H]2[C@H](NC(=O)[C@H](NC(=O)N3CCNC3=O)c3ccccc3)C(=O)N2C1C(=O)O (stereo partly drawn) | -1 |
| COc1cc(OC)c2c(c1)O[C@H](c1ccc(OC)c(OC)c1)[C@@H](O)C2 | -1 |
| CC(=O)O[C@H]1C(=O)[C@@]2(C)C([C@H](OC(=O)c3ccccc3)[C@]3(O)C[C@H](OC(=O)[C@H](O)[C@@H](NC(=O)c4ccccc4)c4ccccc4)C(C)=C1C3(C)C)[C@]1(OC(C)=O)CO[C@@H]1C[C@@H]2O (stereo partly drawn) | -1 |

* * *

Experiment Description: chemical genetic growth profiling, strain panel (AID 1159580);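 further: tested at 20 µM; growth read once vehicle control cultures reached saturation at 30 °C; 1 = growth at the plate median or of vehicle wells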
Details: S. cerevisiae deletion strains, growth OD, locus YDL134C, strain PPH21, stronger effect = lower value
The campaign covered roughly 5,500 compounds. About 2,000 (36%) were called active. Inconclusive results (about 18%) are left out. Some of the results follow.
Parameter normalized growth: see the listing below.

| Compound | normalized growth |
| --- | --- |
| CC[C@@H](CO)NCCN[C@@H](CC)CO | 1.02 |
| C=CC1=C(C(=O)O)N2C(=O)[C@@H](NC(=O)/C(=N/O)c3csc(N)n3)[C@H]2SC1 | 0.99 |
| CCCCCC(=O)O[C@]1(C(C)=O)CCC2C3CCC4=CC(=O)CC[C@]4(C)C3CC[C@@]21C (stereo not given in full) | 1.01 |
| Oc1c(Cl)c(Cl)c(Cl)c(Cl)c1Cl | 0.816 |
| c1ccc(CN(CC2=NCCN2)c2ccccc2)cc1 | 1.01 |
| CCC(C(=O)O)c1ccccc1 (stereo not given) | 1 |
| O=C(O)COCC(=O)N1CCc2c([nH]c3ccccc23)C1C(F)(F)F (stereo not given) | 1.01 |
| COc1ccc(C[C@H]2NC[C@H](O)[C@H]2OC(C)=O)cc1 | 0.533 |
| NC(N)=Nc1nc(CSCCC(N)=NS(N)(=O)=O)cs1 | 1.01 |
| O=C(O)C1c2ccccc2Oc2ccccc21 | 1 |
| CN=C(NC#N)NCCSCc1nc[nH]c1C | 1 |
| CCOC(=O)COc1ccc2c(c1)OC(C)(C)CC2=O | 1.01 |
| COC1C(O)C(O)C(O)[C@@H](O)C1O (stereo not given in full) | 1 |
| CC(=O)OCC(CCn1cnc2cnc(N)nc21)COC(C)=O | 0.997 |
| CC(=O)O[C@]1(C(C)=O)CCC2C3C=C(C)C4=CC(=O)CCC4(C)C3CCC21C (stereo not given in full) | 0.996 |
| c1ccc(CC2=NCCN2)cc1 | 0.99 |
| O=C(c1ccccc1)C1CCN(c2ccc(C(F)(F)F)cc2[N+](=O)[O-])CC1 | 1.01 |
| CC(C)[N+](C)(CCOC(=O)C1c2ccccc2Oc2ccccc21)C(C)C | 1 |
| O=C(O)c1ccccc1OP(=O)(O)O | 1.02 |
| O=[N+]([O-])O[C@H]1CO[C@H]2[C@@H]1OC[C@H]2O[N+](=O)[O-] | 1.01 |
| COC(=O)c1c(Cl)c(Cl)c(C(=O)OC)c(Cl)c1Cl | 0.998 |
| OCC(O)Cc1ccc2c(c1)OCO2 (stereo not given) | 1.01 |
| NC(=O)N1c2ccccc2CC(=O)c2ccccc21 | 0.989 |
| Cc1ccc(O)cc1 | 1.05 |
| CC12CCC(C1)C(C)(C)C2NC(=O)c1cccs1 (stereo not given) | 0.991 |

* * *

Experiment Description: chemical genetic growth profiling, strain panel (AID 1159580);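 further: tested at 20 µM; growth read once vehicle control cultures reached saturation at 30 °C; 1 = growth at the plate median or of vehicle wells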
Details: S. cerevisiae deletion strains, growth OD, locus YOR265W, strain rbl2
Among all 5,500 compounds or so, about 2,000 (36%) were called active. Another 18% or so got no clear call; they are omitted. No stated cut-off is given here; in the data, active means normalized growth mostly below about 0.91 (no sharp cut-off); inconclusive means no clear call, values can overlap the other calls; inactive means mostly above about 0.92. This is one part of the list.
Labels: active, inactive

| Molecule | Group |
| --- | --- |
| CCCCCCCC/C=C/CCCCCCCCOP(=O)([O-])OCC[N+](C)(C)C | active |
| CCCCCCCCCCCCCCCCOP(=O)([O-])OCC[N+](C)(C)C | active |
| NC[C@@H]1O[C@H](O[C@@H]2[C@@H](CO)OC(O[C@@H]3[C@@H](O)[C@H](N)C[C@H](N)[C@H]3OC3O[C@H](CN)[C@@H](O)[C@H](O)[C@H]3N)[C@@H]2O)[C@H](N)[C@@H](O)[C@@H]1O (some centres undefined) | inactive |
| CC(=O)O[C@@](C)(CCC=C(C)C)C1CC=C(C)CC1 (some centres undefined) | inactive |
